So I've got a bunch of molecules here, and I need their Calibration coefficient δ (NMP binding events per unit concentration per min) values.
# target system: MspA-PBA (phenylboronic acid modified hetero-octameric (N90C)1(M2)7 MspA) (Mycolicibacterium smegmatis, UniProt A0QR29, D117C/D118N/D120N/D145R/D161R/E166K)
# Construct: H6 (hexa-histidine) (C); 3-(maleimide) phenylboronic acid (MPBA) adduct on the thiol of Cys90; made in house; host or cells: E. coli BL21 (DE3) pLysS, co-expression from pETDuet-1
# Format: binding, Mycobacterium smegmatis
# applied conditions: sole NMP 300 μM in cis, +200 mV, three independent measurements
# number only, unit µM⁻¹ min⁻¹ dropped from output

Reported Calibration coefficient δ (NMP binding events per unit concentration per min) ( Nc1nc2c(ncn2[C@@H]2O[C@H](COP(=O)(O)O)[C@@H](O)[C@H]2O)c(=O)[nH]1 [GMP, guanosine-5′-monophosphate] ) = 0.136

Reported Calibration coefficient δ (NMP binding events per unit concentration per min) ( Nc1ncnc2c1ncn2[C@@H]1O[C@H](COP(=O)(O)O)[C@@H](O)[C@H]1O [AMP, adenosine-5′-monophosphate] ) = 0.21

Reported Calibration coefficient δ (NMP binding events per unit concentration per min) ( O=c1ccn([C@@H]2O[C@H](COP(=O)(O)O)[C@@H](O)[C@H]2O)c(=O)[nH]1 [UMP, uridine-5′-monophosphate] ) = 0.097

Reported Calibration coefficient δ (NMP binding events per unit concentration per min) ( O=c1[nH]cc([C@@H]2O[C@H](COP(=O)(O)O)[C@@H](O)[C@H]2O)c(=O)[nH]1 [Ψ, Pseudouridine-5′-monophosphate] ) = 0.099

Reported Calibration coefficient δ (NMP binding events per unit concentration per min) ( Nc1ccn([C@@H]2O[C@H](COP(=O)(O)O)[C@@H](O)[C@H]2O)c(=O)n1 [CMP, Cytidine-5′-monophosphate] ) = 0.133
